Listed next: entries and their corresponding pEC50.
Biological target: Human GPR120 short form (Homo sapiens)
Construct: expressed in transfected cells
Sequence (Q5NUL3 1-361): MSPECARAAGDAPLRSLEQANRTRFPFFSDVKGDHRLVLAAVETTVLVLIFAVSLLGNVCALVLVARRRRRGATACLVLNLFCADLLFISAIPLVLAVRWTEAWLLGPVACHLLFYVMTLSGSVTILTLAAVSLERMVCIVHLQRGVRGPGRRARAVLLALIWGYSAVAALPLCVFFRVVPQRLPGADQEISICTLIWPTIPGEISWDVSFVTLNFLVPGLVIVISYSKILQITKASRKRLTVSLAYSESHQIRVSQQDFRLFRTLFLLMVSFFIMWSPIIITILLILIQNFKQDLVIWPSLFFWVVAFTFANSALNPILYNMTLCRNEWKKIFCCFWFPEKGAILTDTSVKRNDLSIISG
Experiment: Human GPR120 calcium flux assay, Procedure Calcium B (4200 cells/well)
Format: cell-based
pEC50: −log10 of the molar value.
Result type: pEC50

Compound | Result
CCC1CCCC(COc2ccc(CCC(=O)O)c(C)c2C)=C1c1ccc(Cl)cc1 (stereo not drawn) | < 5.30
O=C(O)CCc1ccc(OCC2=C(C3CCOCC3)CCC2)cc1Cl | < 5.30
O=C(O)CCc1ccc(OCC2=C(C3CCOCC3)CCC2)cc1C(F)(F)F | < 5.30

Hey, just so you know, these numbers are from patent US11230526B1.
